Ki overview
- system-name: PKC delta kinase (Homo sapiens)
- Sequence (Q05655 whole entry): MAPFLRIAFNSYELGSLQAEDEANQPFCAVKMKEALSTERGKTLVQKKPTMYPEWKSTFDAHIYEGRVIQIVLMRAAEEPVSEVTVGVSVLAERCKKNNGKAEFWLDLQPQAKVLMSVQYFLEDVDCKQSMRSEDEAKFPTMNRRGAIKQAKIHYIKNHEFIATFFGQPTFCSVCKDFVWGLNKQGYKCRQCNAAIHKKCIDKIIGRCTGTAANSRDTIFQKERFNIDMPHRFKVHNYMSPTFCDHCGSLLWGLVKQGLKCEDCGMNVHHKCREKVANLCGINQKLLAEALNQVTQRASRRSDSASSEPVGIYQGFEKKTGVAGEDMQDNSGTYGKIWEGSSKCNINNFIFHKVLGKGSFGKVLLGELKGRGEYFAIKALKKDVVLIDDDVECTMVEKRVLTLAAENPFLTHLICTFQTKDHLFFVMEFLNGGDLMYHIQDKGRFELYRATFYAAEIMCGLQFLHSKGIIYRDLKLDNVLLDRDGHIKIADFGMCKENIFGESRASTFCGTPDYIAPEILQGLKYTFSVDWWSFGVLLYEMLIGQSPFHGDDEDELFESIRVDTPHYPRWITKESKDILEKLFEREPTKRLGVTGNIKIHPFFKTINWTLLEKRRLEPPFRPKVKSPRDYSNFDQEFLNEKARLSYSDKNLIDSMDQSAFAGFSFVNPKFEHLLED
- assay-summary: PKC delta coupled-enzyme kinase assay (NADH consumption)
- stated-conditions: 150 μM ATP, 46 nM PKC delta, 30° C.
reported-endpoint: Ki

{"compound": "CC(C)[C@@](C)(O)[C@@H]1CN(c2nc(-c3n[nH]c4ncncc34)c(F)cc2F)CCN1", "test-result": "< 500 nM"}
{"compound": "CCOc1ncnc2[nH]nc(-c3cccc(N4CCNC(CC(C)C)C4)n3)c12 (centres unmarked)", "test-result": "> 1250 nM"}
